Target: neurokinin-1 (NK-1) receptor (Homo sapiens)
Construct: a human glioblastoma-astrocytoma cell line that endogenously expresses the neurokinin-1 (NK-1) receptor; endogenous in cells; host or cells: U373 human glioblastoma-astrocytoma cells (membranes)
Sequence (P25103 whole entry): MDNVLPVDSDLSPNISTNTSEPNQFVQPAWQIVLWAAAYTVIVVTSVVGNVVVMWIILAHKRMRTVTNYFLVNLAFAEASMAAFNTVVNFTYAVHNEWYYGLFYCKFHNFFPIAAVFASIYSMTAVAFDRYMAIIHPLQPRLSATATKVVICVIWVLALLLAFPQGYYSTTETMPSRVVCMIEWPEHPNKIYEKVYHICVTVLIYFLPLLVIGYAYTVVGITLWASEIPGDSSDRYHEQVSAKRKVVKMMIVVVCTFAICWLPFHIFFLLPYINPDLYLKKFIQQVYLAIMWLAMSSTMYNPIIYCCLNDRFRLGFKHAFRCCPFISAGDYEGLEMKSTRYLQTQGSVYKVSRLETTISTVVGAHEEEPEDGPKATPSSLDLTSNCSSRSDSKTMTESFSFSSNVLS
Assay: NK-1 Binding assay ([125I] Substance P competition, U373 cell membranes)
Details: Table 1; U373 membranes, [125I] Substance P displacement; read-out: NK-1 IC50
property.name: IC50

• Oc1cccc(-c2cc(COCC3(c4ccccc4)CCNCC3)cc(C(F)(F)F)c2)c1 = 0.01 to 100 nM
• COc1cccc(OC)c1-c1cc(COCC2(c3ccccc3)CCNCC2)cc(C(F)(F)F)c1 = 0.01 to 100 nM
• Cc1nnnn1-c1cc(COCC2(c3ccccc3)CCNCC2)cc(C(F)(F)F)c1 = 100 to 300 nM
• Cc1cc(C)c(-c2cc(COCC3(c4ccccc4)CCNCC3)cc(C(F)(F)F)c2)c(C)c1 = > 300 nM
• COc1ccc(-c2cc(COCC3(c4ccccc4)CCNCC3)cc(C(F)(F)F)c2)cc1 = 0.01 to 100 nM
• COc1ccc(-c2ccc(C#N)nc2)cc1COCC1(c2ccccc2)CCNCC1 = 100 to 300 nM
• Cc1cccc(C)c1-c1cc(COCC2(c3ccccc3)CCNCC2)cc(C(F)(F)F)c1 = 100 to 300 nM
• FC(F)(F)c1cc(COCC2(c3ccccc3)CCNCC2)cc(-c2ccc(Cl)cc2Cl)c1 = 0.01 to 100 nM
• O=[N+]([O-])c1cccc(-c2cc(COCC3(c4ccccc4)CCNCC3)cc(C(F)(F)F)c2)c1 = 0.01 to 100 nM
• COc1cc(-c2cc(COCC3(c4ccccc4)CCNCC3)cc(C(F)(F)F)c2)c(Cl)cn1 = > 300 nM

# input Field request: IC50 | item: "Fc1ncccc1-c1cc(COCC2(c3ccccc3)CCNCC2)cc(C(F)(F)F)c1"
# output 0.01 to 100 nM

# input Would you mind doing "COc1ccc(OC)c(-c2cc(COCC3(c4ccccc4)CCNCC3)cc(C(F)(F)F)c2)c1" as well?
# output > 300 nM

# input Would you mind doing "FC(F)(F)c1ccc(-c2cc(COCC3(c4ccccc4)CCNCC3)cc(C(F)(F)F)c2)cc1" as well?
# output 0.01 to 100 nM

# input Would you mind doing "Cn1nc(C(F)(F)F)cc1-c1cc(COCC2(c3ccccc3)CCNCC2)cc(C(F)(F)F)c1" as well?
# output > 300 nM

# input Would you mind doing "N#Cc1cccc(-c2cc(COCC3(c4ccccc4)CCNCC3)cc(C(F)(F)F)c2)c1" as well?
# output 0.01 to 100 nM

# input Would you mind doing "FC(F)(F)c1cc(COCC2(c3ccccc3)CCNCC2)cc(-c2cccc3c2oc2ccccc23)c1" as well?
# output > 300 nM

# input Would you mind doing "FC(F)(F)c1cc(COCC2(c3ccccc3)CCNCC2)cc(-c2ccco2)c1" as well?
# output 0.01 to 100 nM

# input Would you mind doing "Fc1ccc(-c2cc(COCC3(c4ccccc4)CCNCC3)cc(C(F)(F)F)c2)cc1" as well?
# output 0.01 to 100 nM

# input Would you mind doing "FC(F)(F)c1cc(COCC2(c3ccccc3)CCNCC2)cc(-c2cccc(-c3ccccc3)c2)c1" as well?
# output 100 to 300 nM

Source of measurements: patent US20070249607A1
